system: Pseudomonas aeruginosa; experiment: MIC, test tube serial dilution, Pseudomonas aeruginosa; assay type: cell-based; details: strain Bonn; 24 hours, 37°C
ASSAY ENDPOINT: MIC (U/ml)
Write the number in U/ml without appending the unit.

Given the entry CC(=O)N1CCN(C(=O)N[C@@H](C(=O)N[C@@H]2C(=O)N3[C@@H]2SC(C)(C)[C@@H]3C(=O)O)c2ccccc2)C1=O [Example 1] , report its measured MIC. 25

COC(=O)N1CCN(C(=O)N[C@@H](C(=O)N[C@@H]2C(=O)N3[C@@H]2SC(C)(C)[C@@H]3C(=O)O)c2ccccc2)C1=O [Example 3] , same question. 16

CC1(C)S[C@@H]2[C@H](NC(=O)C(C(=O)O)c3ccccc3)C(=O)N2[C@H]1C(=O)O (stereo partly drawn) [Carbenicillin, reference compound] , same question. 200

CC1(C)S[C@@H]2[C@H](NC(=O)[C@H](NC(=O)NC(=O)NS(C)(=O)=O)c3ccccc3)C(=O)N2[C@H]1C(=O)O [Example 31] , same question. 256

CCOC(=O)NS(=O)(=O)N1CCN(C(=O)N[C@@H](C(=O)N[C@@H]2C(=O)N3[C@@H]2SC(C)(C)[C@@H]3C(=O)O)c2ccccc2)C1=O [Example 22] , same question. 16

CN(C(=O)N[C@@H](C(=O)N[C@@H]1C(=O)N2[C@@H]1SC(C)(C)[C@@H]2C(=O)O)c1ccccc1)C(=O)N1CCCS1(=O)=O [Example 29] , same question. 16

CC1(C)S[C@@H]2[C@H](NC(=O)[C@H](NC(=O)N3CCN(C(=O)N4CCCCC4)C3=O)c3ccccc3)C(=O)N2[C@H]1C(=O)O [Example 9] , same question. 64

Cc1ccc(S(=O)(=O)NC2=NCCN2C(=O)N[C@@H](C(=O)N[C@@H]2C(=O)N3[C@@H]2SC(C)(C)[C@@H]3C(=O)O)c2ccccc2)cc1 [Example 25] , same question. 64

====

test system: Pseudomonas aeruginosa; assay: MIC, test tube serial dilution, Pseudomonas aeruginosa; assay type: cell-based; conditions: Table 3; strain F 41
ASSAY ENDPOINT: MIC (U/ml)
Write the number in U/ml without appending the unit.

So what MIC did CCS(=O)(=O)N1CCN(C(=O)NC(C(=O)N[C@@H]2C(=O)N3[C@@H]2SC(C)(C)[C@@H]3C(=O)O)c2ccc(Cl)cc2)C1=O (stereo partly shown) get with Pseudomonas aeruginosa? 128

`CCS(=O)(=O)N1CCN(C(=O)N[C@@H](C(=O)N[C@@H]2C(=O)N3[C@@H]2SC(C)(C)[C@@H]3C(=O)O)c2ccccc2)C1=O` , same question. 64

COC(=O)N1CCN(C(=O)NC(C(=O)N[C@@H]2C(=O)N3[C@@H]2SC(C)(C)[C@@H]3C(=O)O)c2cccs2)C1=O (stereo partly shown) , same question. 64

COC(=O)N1CCN(C(=O)NC(C(=O)N[C@@H]2C(=O)N3[C@@H]2SC(C)(C)[C@@H]3C(=O)O)c2ccc(Cl)cc2)C1=O (stereo partly shown) , same question. 64

CC(=O)N1CCN(C(=O)NC(C(=O)N[C@@H]2C(=O)N3[C@@H]2SC(C)(C)[C@@H]3C(=O)O)c2ccc(Cl)cc2)C1=O (stereo partly shown) , same question. 128

CC1(C)S[C@@H]2[C@H](NC(=O)C(NC(=O)N3CCN(S(C)(=O)=O)C3=O)c3ccc(Cl)cc3)C(=O)N2[C@H]1C(=O)O (stereo partly shown) , same question. 128

`CC1(C)S[C@@H]2[C@H](NC(=O)[C@H](NC(=O)N3CCN(S(C)(=O)=O)C3=O)c3ccccc3)C(=O)N2[C@H]1C(=O)O` , same question. 50

`CC(=O)N1CCN(C(=O)N[C@H](C(=O)N[C@@H]2C(=O)N3[C@@H]2SC(C)(C)[C@@H]3C(=O)O)c2ccccc2)C1=O` , same question. 256

CC(=O)N1CCN(C(=O)NC(C(=O)N[C@@H]2C(=O)N3[C@@H]2SC(C)(C)[C@@H]3C(=O)O)c2ccc(C)cc2)C1=O (stereo partly shown) , same question. 128

CC1(C)S[C@@H]2[C@H](NC(=O)C(NC(=O)N3CCN(S(C)(=O)=O)C3=O)c3cccs3)C(=O)N2[C@H]1C(=O)O (stereo partly shown) , same question. 64

CC(=O)N1CCN(C(=O)NC(C(=O)N[C@@H]2C(=O)N3[C@@H]2SC(C)(C)[C@@H]3C(=O)O)c2cccs2)C1=O (stereo partly shown) , same question. 64

Origin of measurements: patent US3983105A
